Assay: enzyme activity assay at 23° C. with purified enzyme
Format: biochemical
Settings: percentage of wild-type RdpA, set at 100%
ATTRIBUTE MEASURED: MCPA Km (%)
Your answer is read as %, so omit the unit and give the number.

Value of MCPA Km reported for the molecule MON-HT13: engineered oxygenase protein, amino acid sequence SEQ ID NO:47 (protein) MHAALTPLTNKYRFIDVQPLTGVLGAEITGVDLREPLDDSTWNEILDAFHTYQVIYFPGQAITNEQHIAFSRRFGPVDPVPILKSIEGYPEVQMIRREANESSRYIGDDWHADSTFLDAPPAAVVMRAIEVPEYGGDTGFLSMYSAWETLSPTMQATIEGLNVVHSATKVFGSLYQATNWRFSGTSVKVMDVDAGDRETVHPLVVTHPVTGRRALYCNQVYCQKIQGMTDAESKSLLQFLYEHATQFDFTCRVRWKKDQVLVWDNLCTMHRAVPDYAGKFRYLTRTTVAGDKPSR is 68
